assay: binders of probe aFSTL3 on microarray, primary screen, stem cell growth factor project, biochemical, small-molecule microarray, fluorescence 635/667 (AID 1064); settings: higher = more signal;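 further: measures binding of the biotinylated anti-FSTL3 antibody to printed compounds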
Classification field: enter Satisfied for composite z-score values not below -0.2, Not satisfied for values below it.

stdin: Determine whether this compound has composite z-score no lower than -0.2: COC(=O)[C@@]1(Cc2ccc(OC)cc2)[C@H]2c3cc(C(=O)N4CCCC4)n(CCc4ccc(OC)c(Br)c4)c3C[C@H]2CN1C(=O)c1ccccc1
stdout: Satisfied

---
stdin: Determine whether this compound has composite z-score no lower than -0.2: C=CCNC(=O)[C@@H]1[C@H]2C(=O)O[C@H](c3ccccc3)[C@H](c3ccccc3)N2[C@H](c2ccccc2OCCO)[C@@]12C(=O)N(C(=O)OCCOC)c1ccc(C#CCCO)cc12
stdout: Satisfied

stdin: Determine whether this compound has composite z-score no lower than -0.2: CN(C)CCCC[C@@H]1NC(=O)[C@H]2C[C@@H](C(=O)O)[C@@H](c3cccc(OCCO)c3)N2C1=O
stdout: Satisfied

stdin: Determine whether this compound has composite z-score no lower than -0.2: CCCC=C(CCC)[C@@H](NC(=O)c1ccco1)c1ccc(C(=O)OC)cc1
stdout: Satisfied

====

assay: small-molecule microarray binders of probe aLefty2, primary screen, biochemical, biotinylated probe, 635/667 nm fluorescence (AID 1094); conditions: higher = more signal;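 further: score merges spot fluorescence near 667 nm with spot signal-to-noise ratio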
Class assignment keyed on composite z-score, ranges low group (below -0.1), middle group (-0.1 to below 0.05), high group (0.05 or more)

A selection of reference data follows.
stdin: Dear colleague, I would appreciate it if you could identify the bin for O=C1O[C@H](c2ccccc2)[C@H](c2ccccc2)N2[C@H]1[C@@H](C(=O)NC[C@H](O)c1ccccc1)[C@]1(C(=O)Nc3ccc(C#CCCO)cc31)[C@H]2c1ccccc1OCCO and reply at your convenience.
stdout: middle group

stdin: Dear colleague, I would appreciate it if you could identify the bin for COCCOC(=O)N1C(=O)[C@@]2(c3cc(C#CCCO)ccc31)[C@H](C(=O)N1CCc3cc(OC)c(OC)cc3C1)[C@H]1C(=O)O[C@H](c3ccccc3)[C@H](c3ccccc3)N1[C@@H]2c1ccccc1OCCO and reply at your convenience.
stdout: middle group

stdin: Dear colleague, I would appreciate it if you could identify the bin for COc1ccc(C(O)C2C=CC3C(=O)N(C)C(=O)C3N2Nc2ccc([N+](=O)[O-])cc2[N+](=O)[O-])cc1OCc1ccccc1 (centres undefined) and reply at your convenience.
stdout: high group

---
stdin: Dear colleague, I would appreciate it if you could identify the bin for COCCOC(=O)N1C(=O)[C@@]2(c3cc(C#CCC(C(=O)OC)C(=O)OC)ccc31)[C@H](c1ccc(OCCO)cc1)N1[C@H](c3ccccc3)[C@H](c3ccccc3)OC(=O)[C@H]1[C@@H]2C(=O)N1CCCCCCC1 and reply at your convenience.
stdout: high group

stdin: Dear colleague, I would appreciate it if you could identify the bin for [N-]=[N+]=NCc1ccccc1C[C@]1(C(=O)NCc2ccccc2)N=C(c2ccc(OCCCO)cc2)O[C@H]1c1ccccc1CN=[N+]=[N-] and reply at your convenience.
stdout: low group

stdin: Dear colleague, I would appreciate it if you could identify the bin for NC(=O)[C@@]1(CCS(=O)(=O)c2ccccc2)COC(c2ccc(OCCCO)cc2)=N1 and reply at your convenience.
stdout: high group

stdin: Dear colleague, I would appreciate it if you could identify the bin for COC(=O)[C@@]1(CCC(=O)OC(C)(C)C)N=C(c2ccc(OCCCO)cc2)O[C@H]1c1ccccc1CN=[N+]=[N-] and reply at your convenience.
stdout: middle group

stdin: Dear colleague, I would appreciate it if you could identify the bin for CC(C)C[C@H]1NC(=O)[C@H](Cc2ccccc2)NC(=O)[C@@]23C(=O)N[C@@H](Cc4ccccc4)C2[C@H](C)[C@@]2(C)O[C@H]2C3/C=C/C/C=C\CNC1=O (some centres undefined) and reply at your convenience.
stdout: low group

stdin: Dear colleague, I would appreciate it if you could identify the bin for COCC(=C=CC[C@@H](O)c1ccc(OCCO)cc1)C[C@@H](O)COCc1ccccc1 and reply at your convenience.
stdout: middle group

stdin: Dear colleague, I would appreciate it if you could identify the bin for COc1cccc(OC)c1C(=O)O[C@H]1[C@@H]2OC(=O)[C@H](Cc3cccc(Br)c3)C/C=C/C[C@@H](Cc3cccc(Br)c3)C(=O)O[C@H]2[C@@H](OC)O[C@@H]1CO and reply at your convenience.
stdout: middle group

stdin: Dear colleague, I would appreciate it if you could identify the bin for C=C(/C(=C/C[C@@H](OC(C)=O)c1ccccc1OCCO)c1cc(C(=O)OC)ccc1OC)C(C)C and reply at your convenience.
stdout: low group

stdin: Dear colleague, I would appreciate it if you could identify the bin for [N-]=[N+]=NCc1ccccc1C[C@]1(C(=O)N2CCCCC2)N=C(c2ccc(OCCCO)cc2)O[C@H]1c1ccccc1 and reply at your convenience.
stdout: high group

stdin: Dear colleague, I would appreciate it if you could identify the bin for CN(C)CCCNC(=O)[C@@H]1c2ccccc2C(=O)N(C2Cc3ccccc3C2)[C@H]1c1ccc(CO)cc1 and reply at your convenience.
stdout: low group

stdin: Dear colleague, I would appreciate it if you could identify the bin for N[C@@H](Cc1ccccc1)Cn1cc(C2(O)CCCCC2)nn1 and reply at your convenience.
stdout: low group

stdin: Dear colleague, I would appreciate it if you could identify the bin for CCc1cccc(NC(=O)O[C@H]2[C@H](OC(=O)Nc3ccc4c(c3)OCO4)[C@H](OC(=O)Nc3ccc4c(c3)OCO4)[C@@H](OC)O[C@@H]2CO)c1 and reply at your convenience.
stdout: middle group

stdin: Dear colleague, I would appreciate it if you could identify the bin for C=C(COC)/C(=C/C[C@H](OC(=O)c1ccncc1)c1cccc(OCCO)c1)c1cnc2ccccc2c1 and reply at your convenience.
stdout: middle group

====

experiment: basal HepG2 mitochondrial membrane potential changes, profiling panel, cell-based, JC-1 fluorescence, 24 h, 100 nL compound (AID 1167); conditions: higher = more signal; further: test concentration not given here
Recorded metric: z-score
Answer as a number with no unit attached.

stdin: Can you look up the measured z-score of C[N+](C)(C)CCCCCCNC(=O)[C@@H]1C[C@@H]2C(=O)N[C@@H](Cc3ccccc3)C(=O)N2[C@@H]1c1ccc(O)cc1 for me?
stdout: -1.12

stdin: Can you look up the measured z-score of COc1ccc(NC(=O)O[C@H]2[C@H](OC(=O)Nc3ccc4c(c3)OCO4)[C@H](OC(=O)Nc3ccc4c(c3)OCO4)[C@@H](OC)O[C@@H]2CO)cc1 for me?
stdout: -0.0127

---
stdin: Can you look up the measured z-score of Cc1ccccc1C(O)C1C=CC2C(=O)N(c3ccccc3)C(=O)C2N1Nc1ccccc1F (configuration not stated) for me?
stdout: -2.82

stdin: Can you look up the measured z-score of NC(=O)NCC#Cc1ccc2c(c1)[C@]1(C(=O)N2)[C@H](C(=O)N2CCCCCCC2)[C@H]2C(=O)O[C@H](c3ccccc3)[C@H](c3ccccc3)N2[C@@H]1c1ccc(O)cc1 for me?
stdout: -1.98

stdin: Can you look up the measured z-score of C[C@H]1NC(=O)C([C@@H](C)OCc2ccccc2)NC(=O)[C@@]23C(=O)N[C@@H](Cc4ccccc4)C2[C@H](C)[C@@]2(C)O[C@H]2C3/C=C/C/C=C\CNC1=O (some centres not stated) for me?
stdout: 0.817

stdin: Can you look up the measured z-score of CN(C)CCCC[C@@H]1NC(=O)[C@H]2C[C@@H](C(=O)O)[C@@H](c3cccc(OCCO)c3)N2C1=O for me?
stdout: 0.773

stdin: Can you look up the measured z-score of CN1C(=O)C2C(C1=O)C1C=C(c3ccc(CO)cc3)C2C(c2cccs2)N1C (configuration not stated) for me?
stdout: 0.398

====

experiment: small-molecule microarray binders of probe aEGFR, primary screen, biochemical, biotinylated probe, 635/667 nm fluorescence (AID 1097); conditions: higher = more signal;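 further: probe is a biotinylated anti-EGFR antibody binding compounds printed on slides; score combines fluorescence near 667 nm and signal to noise of each spot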
Recorded metric: composite z-score
Answer as a number with no unit attached.

Sample records with composite z-score:
stdin: Can you look up the measured composite z-score of CCCC[C@@H]1C[C@H]1[C@@H](NC(=O)c1ccc(C(F)(F)F)cc1)c1ccc(C(=O)OC)cc1 for me?
stdout: 0.695

stdin: Can you look up the measured composite z-score of COCC1=C([C@H](O)CCc2ccccc2)[C@H](CO)n2c(=O)n(-c3ccccc3)c(=O)n2C1 for me?
stdout: -0.253

stdin: Can you look up the measured composite z-score of C[N+](C)(C)CCCCCCNC(=O)[C@@H]1C[C@@H]2C(=O)N[C@@H](Cc3ccccc3)C(=O)N2[C@@H]1c1ccc(O)cc1 for me?
stdout: 0.0144

---
stdin: Can you look up the measured composite z-score of CCCCN1CC=CC23O[C@@H]4C=CCOC(=O)[C@@H]4[C@H]2C(=O)N(CCO)[C@@H]3C1=O (stereo not given in full) for me?
stdout: -0.327

stdin: Can you look up the measured composite z-score of C=CC[C@]1(C(=O)OC)N=C(c2ccc(OCCCO)cc2)O[C@H]1c1ccccc1N=[N+]=[N-] for me?
stdout: 0.686

stdin: Can you look up the measured composite z-score of CCCC[C@H]1OB(O)C[C@H]2C1=C(C)C[C@H]1C(=O)C=CC(=O)[C@H]12 for me?
stdout: -0.071

stdin: Can you look up the measured composite z-score of CN(C)CCCNC(=O)[C@@H]1c2ccccc2C(=O)N(C2Cc3ccccc3C2)[C@H]1c1ccc(CO)cc1 for me?
stdout: 0.111

stdin: Can you look up the measured composite z-score of COCCOC(=O)N1C(=O)[C@@]2(c3cc(C#CC4(O)CCCCCC4)ccc31)[C@H](c1ccc(OCCO)cc1)N1[C@H](c3ccccc3)[C@H](c3ccccc3)OC(=O)[C@H]1[C@@H]2C(N)=O for me?
stdout: -0.013

stdin: Can you look up the measured composite z-score of CN(C)CCCC[C@@H]1NC(=O)[C@H]2C[C@@H](C(=O)O)[C@@H](c3cccc(OCCO)c3)N2C1=O for me?
stdout: 0.169

stdin: Can you look up the measured composite z-score of CC(=O)NCCCC[C@@H]1NC(=O)[C@H]2C[C@@H](C(=O)NCCCCCC[N+](C)(C)C)[C@@H](c3ccc(O)cc3)N2C1=O for me?
stdout: -0.125

stdin: Can you look up the measured composite z-score of COCC(=C=CC[C@@H](O)c1ccc(OCCO)cc1)C[C@@H](O)COCc1ccccc1 for me?
stdout: 0.049

The measured values listed here are drawn from PubChem BioAssay.
